molecular target: T1, human TF on cells (MDA-MB-231, BxPC-3 and other tumor cells with high TF expression) (human, UniProt P13726 33-295); experiment: flow cytometry on MDA-MB-231 cells, antibody at 1 µg/mL
T1 construct: whole, on cells; Endogenous expression on tumor cell lines; also called cell surface TF
Overview of reported MFI across a group of binders:
Give the number; MFI is assumed, so skip it.

Known results for binders:
[Q] Could you please provide reported MFI for TF-mAb-H45 (antibody, V domains shown) VH: EVQLVQSGAEVKKPGESLKISCKGSGYSFTSYWMNWVRQMPGKGLEWMGMIYPADSETRLNQKFKDKATLSVDKSISTAYLQWSSLKASDTAMYYCAREDYGSSDYWGQGTTVTVSS VL: EIVLTQSPDFQSVTPKEKVTITCSASSSVSYMNWYQQKPDQSPKIWIYGISNLASGVPSRFSGSGSGTDFTLTINSLEAEDAATYYCQQKSSFPWTFGGGTKVEIK ? Thanks!
[A] 3100

[Q] Could you please provide reported MFI for TF-mAb-H36 (antibody, V domains shown) VH: EVQLVQSGAEVKKPGESLKISCKGSGYSFTSYWMNWVKQMPGKGLEWMGMIYPADSETRLNQKFKDKATLSVDKSISTAYLQWSSLKASDTAMYYCAREDYGSSDYWGQGTTVTVSS VL: EIVLTQSPATLSLSPGERATLSCSASSSVSYMNWYQQKPGQSPRIWIYGISNLASGVPARFSGSGSGTDFTLTISSLEPEDFAVYYCQQKSSFPWTFGGGTKVEIK ? Thanks!
[A] 3040

More entries:
[Q] Could you please provide reported MFI for TF-mAb-H44 (antibody, V domains shown) VH: EVQLVQSGAEVKKPGESLKISCKGSGYSFTSYWMNWVRQMPGKGLEWMGMIYPADSETRLNQKFKDQATLSVDKSISTAYLQWSSLKASDTAMYYCAREDYGSSDYWGQGTTVTVSS VL: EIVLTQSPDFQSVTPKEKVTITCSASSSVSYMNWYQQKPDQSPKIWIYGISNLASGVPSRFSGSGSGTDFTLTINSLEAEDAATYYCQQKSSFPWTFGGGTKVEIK ? Thanks!
[A] 3200

[Q] Could you please provide reported MFI for TF-mAb-H47 (antibody, V domains shown) VH: QVQLVQSGAEVKKPGASVKVSCKASGYSFISYWMNWVRQAPGQGLEWIGMIYPADSETRLNQKFKDRATLTVDKSTSTAYMELSSLRSEDTAVYYCAREDYGSSDYWGQGTTVTVSS VL: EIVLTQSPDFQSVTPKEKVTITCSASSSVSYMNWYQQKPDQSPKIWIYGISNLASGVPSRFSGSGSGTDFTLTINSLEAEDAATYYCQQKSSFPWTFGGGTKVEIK ? Thanks!
[A] 3000

[Q] Could you please provide reported MFI for TF-mAb-H35 (antibody, V domains shown) VH: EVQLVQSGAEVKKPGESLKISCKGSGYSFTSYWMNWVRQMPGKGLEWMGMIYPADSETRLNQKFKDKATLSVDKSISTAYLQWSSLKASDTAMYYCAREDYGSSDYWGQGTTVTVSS VL: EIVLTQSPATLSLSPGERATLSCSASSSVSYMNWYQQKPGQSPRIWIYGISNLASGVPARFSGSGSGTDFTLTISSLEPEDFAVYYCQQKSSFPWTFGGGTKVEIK ? Thanks!
[A] 2930

[Q] Could you please provide reported MFI for TF-mAb-H34 (antibody, V domains shown) VH: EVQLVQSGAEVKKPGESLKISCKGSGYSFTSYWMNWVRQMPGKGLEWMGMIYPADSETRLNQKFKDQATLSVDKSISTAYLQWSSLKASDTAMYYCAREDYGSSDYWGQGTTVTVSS VL: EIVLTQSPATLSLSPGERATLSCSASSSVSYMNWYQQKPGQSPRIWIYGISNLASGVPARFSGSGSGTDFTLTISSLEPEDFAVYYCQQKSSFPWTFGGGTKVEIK ? Thanks!
[A] 2460

These entries and their values trace back to patent US20230138930A1.
